Tested on: UO-31 renal
Assay procedure: NCI-60 one-dose screen, 48 h
Condition description: 10 µM unless noted
Compounds without any hit were thinned out: in the full panel of roughly 83,000, 20% have a hit. Calls of active or inactive are those of the source. How the source made its calls: active means growth percent below 10; inactive means the rest.
Answer with one of the outcomes given here: Y (active), N (inactive)

Exercise: How was COc1ccc2c(c1OC)CO[C@@H]2[C@H]1c2c(cc3c(c2OC)OCO3)CCN1S(=O)(=O)c1cn(C)cn1 classified in this test?
Key: N

Exercise: How was N#Cc1nc(-c2ccccc2)oc1S(=O)(=O)N1CCN(c2ccccc2)CC1 classified in this test?
Key: N

Exercise: How was C=CCn1c(SCC(=O)Nc2ccc(C(=O)/C=C/c3ccc(Cl)cc3)cc2)nnc1-c1ccc(Br)cc1 classified in this test?
Key: N

Exercise: How was Cc1ccc(-c2nc(N3CCCNCC3)c3oc(-c4ccccc4)nc3n2)cc1 classified in this test?
Key: Y

Exercise: How was CCOC(=O)C(=O)C(C(=O)OCC)c1ccccc1 (stereo not given) classified in this test?
Key: N

Exercise: How was OCCn1cc(-c2nc(-c3c[nH]c4ncccc34)cs2)c2cc(F)ccc21 classified in this test?
Key: N

Exercise: How was COc1cc2cc(NCc3cccc(Cl)c3)nc(C)c2cc1OC classified in this test?
Key: N

Exercise: How was c1ccc(Cn2cc3c(c2)-c2oncc2CC3)cc1 classified in this test?
Key: N

Exercise: How was N#Cc1c(-c2ccccc2)[nH]c2ncc(-c3ccccc3)n2c1=O classified in this test?
Key: N

Exercise: How was CCOC(=O)c1cc(C)n(-c2ccc(C(=O)O)cc2)c1C classified in this test?
Key: N

Exercise: How was O=C(c1ccncc1)N1N=C(c2ccc(Cl)cc2)C[C@H]1c1cn(-c2ccccc2)nc1-c1ccccc1 classified in this test?
Key: N

Exercise: How was O=C(N/N=C/c1c(Cl)cccc1Cl)c1cccnc1Nc1cccc(C(F)(F)F)c1 classified in this test?
Key: N

Exercise: How was COc1cc(/C=C/C(=O)c2ccc(F)cc2)ccc1OCCCCOc1ccc(/C=C/C(=O)c2c(C)nc3ccccc3c2C)cc1OC classified in this test?
Key: N

Exercise: How was CCOC(=O)C1=C(N)Oc2c(sc3c(F)cccc23)C1c1ccc(O)cc1 (stereo not given) classified in this test?
Key: N

Exercise: How was Oc1c(Br)cc(Br)c2ccc(Cn3cc(-c4ccccc4C(F)(F)F)nn3)nc12 classified in this test?
Key: N

Exercise: How was COC(=O)c1c(C)nc(C)c2c1C(=O)C(Br)=C(NCc1ccccc1)C2=O classified in this test?
Key: N

Exercise: How was O=C1C(Cl)=C(Nc2ccc(S(=O)(=O)N3CCOCC3)cc2)C(=O)c2ccccc21 classified in this test?
Key: N

Exercise: How was COc1ccc(OC)c(/C=N/Nc2ncnc3c2c(C)nn3C)c1 classified in this test?
Key: N

Exercise: How was CCN1C(=S)N(c2ccccc2)C2NC(=S)N(/N=C/C=C/c3ccccc3OC)C21 (stereo not given) classified in this test?
Key: N

Exercise: How was CCOC(=O)c1c(C(=O)c2cn(C)c3ccc(Br)cc23)c(-c2cn(C)c3ccc(Br)cc23)n(NC(=O)OC(C)(C)C)c1C classified in this test?
Key: N
